# target: bovine rod cGMP-gated channel alpha subunit (retinal CNG channel) (Bos taurus)
# Sequence (Q00194 1-690): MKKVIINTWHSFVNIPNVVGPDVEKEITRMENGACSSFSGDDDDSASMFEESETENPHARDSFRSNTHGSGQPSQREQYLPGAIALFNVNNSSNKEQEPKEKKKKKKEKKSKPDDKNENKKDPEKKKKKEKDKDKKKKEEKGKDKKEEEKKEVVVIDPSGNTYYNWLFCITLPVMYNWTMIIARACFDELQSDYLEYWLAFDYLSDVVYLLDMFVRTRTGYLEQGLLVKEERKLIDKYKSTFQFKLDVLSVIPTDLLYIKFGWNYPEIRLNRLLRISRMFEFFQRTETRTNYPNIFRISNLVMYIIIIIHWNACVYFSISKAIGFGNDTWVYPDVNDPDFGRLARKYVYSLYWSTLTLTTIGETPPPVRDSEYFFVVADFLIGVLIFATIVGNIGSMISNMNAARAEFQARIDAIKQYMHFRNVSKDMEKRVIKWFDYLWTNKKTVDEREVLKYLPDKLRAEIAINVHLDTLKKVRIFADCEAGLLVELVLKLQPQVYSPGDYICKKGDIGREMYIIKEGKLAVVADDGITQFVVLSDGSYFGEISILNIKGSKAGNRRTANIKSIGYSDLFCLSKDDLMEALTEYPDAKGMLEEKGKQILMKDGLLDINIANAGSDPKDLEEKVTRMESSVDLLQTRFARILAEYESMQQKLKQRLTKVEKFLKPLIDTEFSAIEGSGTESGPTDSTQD
assayEndpoint: Kd (nM)
Numbers only, in nM.

Ask | Sample NCCCNCCCCNCCCN [spermine] — what was its Kd?
Reply | 510

The values you see were collected from paper PMC2232895.
